Could you please report measured kon for the items listed next?
target: Recombinant human his-tagged IGF 1R extracellular domain protein (human) (UniProt P08069); assay: SPR, captured IgG, IGF-1R ECD-his analyte, dissociation pH 6
Use M⁻¹ s⁻¹ as the unit, but write only the number.

Field request: kon | item: VRDN-02543 (antibody, V domains shown) VH: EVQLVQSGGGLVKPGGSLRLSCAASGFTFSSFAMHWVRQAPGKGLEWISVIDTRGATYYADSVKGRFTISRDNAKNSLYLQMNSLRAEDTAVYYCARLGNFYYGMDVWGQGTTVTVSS VL: EIVLTQSPGTLSVSPGERATLSCRASQSIGSSLHWYQQKPGQAPRLLIKYASQHLSGIPDRFSGSGSGTDFTLTISRLEPEDFAVYYCHQSSRLPHTFGQGTKVEIK
40000

Item under review: VRDN-02529 (antibody, V domains shown) VH: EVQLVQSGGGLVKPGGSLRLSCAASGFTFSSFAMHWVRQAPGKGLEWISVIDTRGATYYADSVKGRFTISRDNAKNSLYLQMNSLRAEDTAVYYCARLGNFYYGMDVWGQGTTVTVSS VL: EIVLTQSPGTLSVSPGERATLSCRHSQSIGSSLHWYQQKPGQAPRLLIKYASQSLSGIPDRFSGSGSGTDFTLTISRLEPEDFAVYYCHQSSRLPHTFGQGTKVEIK . Reported kon?
18500

GET /values?readout=kon&item= VRDN-02547 (antibody, V domains shown) VH: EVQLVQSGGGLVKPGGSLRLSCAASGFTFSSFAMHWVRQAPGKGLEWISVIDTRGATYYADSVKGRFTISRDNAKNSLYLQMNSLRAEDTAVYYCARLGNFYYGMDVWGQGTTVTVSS VL: EIVLTQSPGTLSVSPGERATLSCRASQSIGSSLHWYQQKPGQAPRLLIKYASQSLSGIPDRFSGSGSGTDFTLTISRLEPEDFAVYYCHQHSRLPHTFGQGTKVEIK
39800
